Tested on: p21 promoter-luciferase construct
experiment: p21 reporter gene induction in HeLa cells transfected with p21 promoter-luciferase construct
Assay type: cell-based
experimental-parameters: relative gene level of p21 induced compared to MS275 at 3 μM
I'd appreciate it if you could supply p21 RP3 values for the items below.
One number for each entry.

Some solved cases for reference:
| molecule | p21 RP3 |
| --- | --- |
| COc1cncc(-c2ccnc(NC3CCc4ccc(C(=O)NO)cc4C3)n2)c1 (stereo not drawn) [Example 27] | 0.35 |
| O=C(NO)c1ccc2c(c1)CC(Nc1ncc3cc(F)ccc3n1)CC2 (stereo not drawn) [Example 35] | −0.86 |
| O=C(NO)c1ccc2c(c1)CC(Nc1nccc(-c3ccc(F)c(Cl)c3)n1)CC2 (stereo not drawn) [Example 22] | −0.87 |
| Cc1ccc(-c2ccnc(NC3CCc4ccc(C(=O)NO)cc4C3)n2)c(F)c1 (stereo not drawn) [Example 17] | −0.56 |
| O=C(NO)c1cc2c(cc1F)CCC(Nc1nccc(-c3cccnc3)n1)C2 (stereo not drawn) [Example 50] | 0.26 |

Give measured p21 RP3 for every item shown.
1. O=C(NO)c1ccc2c(c1)CC(NS(=O)(=O)c1cccnc1)CC2 (stereo not drawn) [Example 48]
2. O=C(NO)c1ccc2c(c1)CC(Nc1nccc(-c3ccc(Oc4ccccc4)cc3)n1)CC2 (stereo not drawn) [Example 23]
3. O=C(NO)c1ccc2c(c1)CC(NS(=O)(=O)c1cccc(F)c1)CN2 (stereo not drawn) [Example 62]
4. CN1CC(NS(=O)(=O)c2ccc(Cl)cc2)Cc2cc(C(=O)NO)ccc21 (stereo not drawn) [Example 65]
5. COc1ccc(-c2ccnc(NC3CCc4ccc(C(=O)NO)cc4C3)n2)c(OC)c1 (stereo not drawn) [Example 18]
6. O=C(NO)c1cc2c(cc1F)CCC(NS(=O)(=O)c1ccc(Cl)cc1)C2 (stereo not drawn) [Example 51]
7. O=C(NO)c1ccc2c(c1)CC(NC(=O)c1ccc(Cl)c(Cl)c1)CN2 (stereo not drawn) [Example 58]
8. O=C(NO)c1ccc2c(c1)CC(Nc1nccc(-c3ccc4ccccc4c3)n1)CC2 (stereo not drawn) [Example 33]

a:
0.41
0.30
0.13
0.41
0.43
0.20
0.03
0.19

Give measured p21 RP3 for every item shown.
1. O=C(/C=C/c1cccnc1)NC1CCc2ccc(C(=O)NO)cc2C1 (stereo not drawn) [Example 37]
2. O=C(NO)c1ccc2c(c1)CC(Nc1nccc(C(F)(F)F)n1)CC2 (stereo not drawn) [Example 8]
3. Cc1ccc(-c2ccnc(NC3CCc4ccc(C(=O)NO)cc4C3)n2)cc1 (stereo not drawn) [Example 11]

a:
−0.18
−0.12
−0.13

Give measured p21 RP3 for every item shown.
1. O=C(NO)c1ccc2c(c1)CC(NS(=O)(=O)c1ccc(Cl)cc1)CC2 (stereo not drawn) [Example 41]
2. O=C(NO)c1ccc2c(c1)CC(Nc1nccc(-c3ccc(N4CCOCC4)nc3)n1)CC2 (stereo not drawn) [Example 31]
3. O=C(NO)c1ccc2c(c1)CC(NC(=O)c1ccc(Cl)cc1)CN2 (stereo not drawn) [Example 55]

a:
1. −0.15
2. 0.18
3. 0.50

----------
I'd appreciate it if you could supply p21 RP3 values for the items below.
Tested on: p21 promoter-luciferase construct
experiment: p21 reporter gene induction in HeLa cells transfected with p21 promoter-luciferase construct
Assay type: cell-based
experimental-parameters: relative gene level of p21 induced compared to MS275 at 3 μM
Numbers only.

Some solved cases for reference:
| molecule | readout | quantitative-readout |
| --- | --- | --- |
| O=C(NO)c1cc2c(cc1F)CCC(NS(=O)(=O)c1cccc(Cl)c1)C2 (stereo not shown) | p21 RP3 | 0.12 |
| CN(C)c1cccc(-c2ccnc(NC3CCc4ccc(C(=O)NO)cc4C3)n2)c1 (stereo not shown) | p21 RP3 | 1.50 |
| O=C(NO)c1ccc2c(c1)CC(NC(=O)c1cccc(Cl)c1)CN2 (stereo not shown) | p21 RP3 | 0.04 |
| O=C(NO)c1ccc2c(c1)CC(Nc1nccc(-c3cccnc3)n1)CN2 (stereo not shown) | p21 RP3 | 0.18 |
| O=C(NO)c1ccc2c(c1)CC(NC(=O)c1ccc(-c3ccccc3)cc1)CN2 (stereo not shown) | p21 RP3 | 0.20 |

Give measured p21 RP3 for every item shown.
1. O=C(NO)c1cc2c(cc1F)CCC(Nc1ncccn1)C2 (stereo not shown)
2. Cc1cc(Oc2ccccc2)nc(NC2CCc3ccc(C(=O)NO)cc3C2)n1 (stereo not shown)

a:
1: 0.50; 2: 0.26
